These data points were gathered from ChEMBL document CHEMBL1154060.

Parameter Ratio IC50: see the listing below.
Species: Homo sapiens
assay.details: Selectivity ratio of IC50 for human recombinant BuChE to IC50 for human recombinant AChE

>  <compound>
CCC1=CC2Cc3nc4cc(Cl)ccc4c(NCCN=[N+]=[N-])c3C(C1)C2 (racemic)

>  <modifier>
=

>  <Ratio IC50>
60

$$$$
>  <compound>
COc1cc2c(cc1OC)C(c1cccc([N+](=O)[O-])c1)N(CCCCCCc1cn(CCNc3c4c(nc5cc(Cl)ccc35)CC3C=C(C)CC4C3)nn1)CC2 (racemic)

>  <modifier>
>

>  <Ratio IC50>
10000

$$$$
>  <compound>
CC1=CC2Cc3nc4cc(Cl)ccc4c(NCCN=[N+]=[N-])c3C(C1)C2 (racemic)

>  <modifier>
=

>  <Ratio IC50>
270

$$$$
>  <compound>
CCC1=CC2Cc3nc4cc(Cl)ccc4c(NCCO)c3C(C1)C2 (racemic)

>  <modifier>
=

>  <Ratio IC50>
540

$$$$
>  <compound>
CC1=CC2Cc3nc4ncccc4c(N)c3C(C1)C2 (racemic)

>  <modifier>
=

>  <Ratio IC50>
0.4

$$$$
